target.or.system: human IL-17RA on cells (human PBMC; human foreskin fibroblasts) (human, UniProt Q96F46 33-866)
method.notes: cell-based or functional assay
Known % Inhib. of IL-5 production (TSLP treated human PBMC + IL-2 + IL-25), Expt. 1 of a selection of binders
Value expressed in %; do not type the unit.

2.23.1 (antibody, V domains shown) VH: QVQLVESGGGLVKPGGSLRLSCAASGFTFSDYYMSWIRQAPGKGLEWVSYISSSGSTIYYADSVKGRFTISRDNAKNSLYLQMNSLRAEDTAVYYCARDRTYYFGSGSYEGMDVWGQGTTVTVSS VL: EILMTQSPATLSVSPGERATLSCRASQSVYSNLAWYQQKPGQAPRLLISGASTRATGIPARFSGSGSGTEFTLTISSLQSEDFAVYYCQQYYNWPWTFGQGTKVEIK :: 0
2.225.1 (antibody, V domains shown) VH: QVQLVQSGVEVKKPGASVKVSCKASGYTLTRYGISWVRQAPGQGLEWMGWISAYNGNTNYAQKLQGRVTMTTDTSTSTAYMELRSLRSDDTAVYYCARRDYDILTGYYNGFDPWGQGTLVTVSS VL: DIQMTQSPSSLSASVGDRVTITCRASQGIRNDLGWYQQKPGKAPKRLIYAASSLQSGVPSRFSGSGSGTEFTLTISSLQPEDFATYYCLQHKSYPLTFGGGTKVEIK :: 0
2.133.1 (antibody, V domains shown) VH: QVQLQESGPGLVKPSETLSLTCTVSGGSISNYYWNWIRQSPGKGLEWIGDIYYSGSTNYNPSLKSRVTISVDTSKNQFSLKLSSVTTADTAVYYCARDGELANYYGSGSYQFYYYYGMDVWGQGTTVTVSS VL: DILMTQSPSSLSASVGDRVTITCRASQGIRNDLGWYQQKPGKAPKRLIYAASSLQSGVPSRFSGSGSGTEFTLTISSLQPEDFATYYCLQHNSNPFTFGPGTKVDIK :: 0
2.46.1 (antibody, V domains shown) VH: QVQLVQSGAEVKKPGASVKVSCKASGNTFTGYGISWVRQAPGQGLEWMGWISAYNGNTNYAQNLQGRVTMTTDTSTSTAYMELRSLRSDDTAVYYCARRDYDILTGYYNGFDPWGQGTLVTVSS VL: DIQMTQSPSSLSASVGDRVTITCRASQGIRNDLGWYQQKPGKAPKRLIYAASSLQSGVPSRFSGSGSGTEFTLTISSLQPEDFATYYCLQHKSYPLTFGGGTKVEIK :: 0

// moving on: another record for % Inhib. of IL-5 production (TSLP treated human PBMC + IL-2 + IL-25), Expt. 1
What value of % Inhib. of IL-5 production (TSLP treated human PBMC + IL-2 + IL-25), Expt. 1 has been recorded for this entry: 4.393.1 (antibody, V domains shown) VH: QVQLVQSGAEVKKPGASVKVSCKASGYTFTSYGISWVRQAPGQGLEWMGWISAYNGNTKYAQKLQGRVTMTTDTSTSTVYMELRSLRSDDTAVYYCARKQLVFDYWGQGTLVTVSS VL: EIVMTQSPATLSVSPGERATLSCRASQSISTSLAWYQQKPGQAPRLLIYGTSTRATGIPARFSGSGSGTEFTLTISSLQSEDFAVYFCQQYDIWPLTFGGGTKVEIK
28

Origin of measurements: patent US20170114140A1
